Where do the numbers come from? From BigSolDB 2.1.

settings: in methyl acetate, 283.15 K
Recorded Metric: solubility (mole fraction)

-- ask Field request: solubility (mole fraction) | item: `Cc1c(C(=O)c2c[nH]n(C)c2=O)ccc(S(C)(=O)=O)c1C1=NOCC1`
-- reply 0.000989

====

settings: in n-propanol, 298.15 K
Recorded Metric: solubility (mole fraction)
Lab note: write the figure by itself, no unit.

-- ask Field request: solubility (mole fraction) | item: `Cc1c(C(=O)c2c[nH]n(C)c2=O)ccc(S(C)(=O)=O)c1C1=NOCC1`
-- reply 0.000126

====

conditions: in isopropyl acetate, 318.15 K
Recorded Metric: solubility (mole fraction)
Lab note: write the figure by itself, no unit.

-- ask Field request: solubility (mole fraction) | item: `Cc1c(C(=O)c2c[nH]n(C)c2=O)ccc(S(C)(=O)=O)c1C1=NOCC1`
-- reply 0.000997
